conditionLabel: 323.15 K; 100 kPa; Liquid
Numbers after ± are expanded uncertainties.
measurementKind: viscosity
Just the number plus its unit, please.

recordSmiles	viscosity
NCCO	6.765 ± 0.076 mPa·s
CCN1CCCC1=O	1.31 ± 0.02 mPa·s
OCCNCCO	102.72 ± 2.6 mPa·s

Please turn your attention to the following entry.
Query :: What measured viscosity goes with `OCCN(CCO)CCO` ?
Result :: 111.34 ± 3.1 mPa·s

---

Known speed of sound of a selection of compounds
conditionLabel: 293.15 K; 100 kPa; Liquid
Write the value in m/s as a bare number.

Previously resolved entries follow.
recordSmiles	speed of sound, m/s
NCCO	1734.4
OCCNCCO	1739.2
CCN1CCCC1=O	1513.2

Please turn your attention to the following entry.
Query :: What measured speed of sound goes with `OCCN(CCO)CCO` ?
Result :: 1626.9

Reference source for all entries: the NIST ThermoML archive (doi:10.1021/je301123j)
